// provenance: patent US12195427B2

Target: MASP-2 CCP2-SP (Homo sapiens (Human))
Experiment: MASP-2 co-crystallization, X-ray crystallography and structure analysis (H-bonds, van der Waals contacts)
Conditions: Table A5-2 pharmacophore distance, S3/S4 region
Description: This example illustrates the preparation of recombinant MASP-2 protein, based on UniProt O00187, human mannan-binding lectin serine protease 2. Expression constructs for human MASP-2 CCP2-SP and CCP2-SP-6HIS were generated for recombinant expression in E. coli cells. […]
Give measured d(O2,N2) for each item. Keep answers brief.
Numbers only.

Example results:
Noted d(O2,N2) for Cc1nc(N)ccc1CNC(=O)C(C)NC(=O)C1CC(c2cccc3ccccc23)CCN1.Cl.Cl (stereo not shown) [1297_3] , tested on MASP-2 CCP2-SP (Homo sapiens (Human)): 2.72

Noted d(O2,N2) for Cc1nc(N)ccc1CNC(=O)[C@H](C)NC(=O)[C@H]1C[C@@H](c2cccc3ccccc23)CCN1.Cl.Cl [1297_2] , tested on MASP-2 CCP2-SP (Homo sapiens (Human)): 2.84

Noted d(O2,N2) for Cc1nc(N)ccc1CNC(=O)C(C)NC(=O)C1CC(c2cccc3ccccc23)CCN1.Cl.Cl (stereo not shown) [1297_1] , tested on MASP-2 CCP2-SP (Homo sapiens (Human)): 2.71

Noted d(O2,N2) for C[C@H](NC(=O)[C@H]1C[C@@H](c2ccccc2)CCN1)C(=O)NCc1cc(Cl)ccc1O.Cl [1078_12] , tested on MASP-2 CCP2-SP (Homo sapiens (Human)): 2.84

Noted d(O2,N2) for Cc1nc(N)ccc1CNC(=O)C(C)NC(=O)[C@H]1C[C@H](c2cccc(-c3ccccc3)c2)CN1 (stereo in doubt) , tested on MASP-2 CCP2-SP (Homo sapiens (Human)): 2.66

Noted d(O2,N2) for C[C@H](NC(=O)[C@H](N)CCCc1ccccc1)C(=O)NCc1ccc(C(=N)N)cc1.Cl.Cl [1042_1] , tested on MASP-2 CCP2-SP (Homo sapiens (Human)): 2.64

Continue with the molecule presented below.
Noted d(O2,N2) for C[C@H](NC(=O)[C@@H](CCc1ccccc1)NCCCc1ccc(O)cc1)C(=O)NCc1ccc(C(=N)N)cc1.Cl.Cl , tested on MASP-2 CCP2-SP (Homo sapiens (Human)): 2.77

----------
Target: UniProt O00187
Experiment: MASP-2 co-crystallization, X-ray crystallography and structure analysis (H-bonds, van der Waals contacts)
Set-up: unit not given beside the values
Conditions: Table A2-13; MASP-2 GLY 656 C
Text: This example illustrates the preparation of recombinant MASP-2 protein, based on UniProt O00187, human mannan-binding lectin serine protease 2. Expression constructs for human MASP-2 CCP2-SP and CCP2-SP-6HIS were generated for recombinant expression in E. coli cells. […]
Counter-ions that a name gives are not always drawn.
parameter-measured: van der Waals contact distance GLY 656 atom C
Give bare numbers.

Example results:
Just so you know, measured van der Waals contact distance GLY 656 atom C for C[C@H](NC(=O)c1cc(-c2ccccc2)c[nH]1)C(=O)NCc1ccc(C(=N)N)cc1 [compound 1030] came out at 3.73

Just so you know, measured van der Waals contact distance GLY 656 atom C for C[C@H](NC(=O)[C@H]1C[C@@H](c2ccccc2)CN1)C(=O)NCc1ccc(C(=N)N)cc1 [compound 1037] came out at 3.7

Just so you know, measured van der Waals contact distance GLY 656 atom C for C[C@H](NC(=O)[C@H](N)CCc1ccccc1)C(=O)NCc1cc(Cl)ccc1O [compound 1031, Hydrochloride] came out at 3.61

Just so you know, measured van der Waals contact distance GLY 656 atom C for C[C@H](NC(=O)[C@H](N)CCc1cc(Cl)cc(Cl)c1)C(=O)NCc1ccc(C(=N)N)cc1 [compound 1118] came out at 3.63

Just so you know, measured van der Waals contact distance GLY 656 atom C for C[C@H](NC(=O)[C@H]1C[C@H](Cc2ccccc2)CN1)C(=O)NCc1cc(Cl)ccc1-n1cnnn1 [compound 1371, Hydrochloride] came out at 3.84

Just so you know, measured van der Waals contact distance GLY 656 atom C for C[C@H](NC(=O)[C@H](N)CCc1cccc(Cl)c1)C(=O)NCc1ccc(C(=N)N)cc1 [compound 1081] came out at 3.27

Next:
Just so you know, measured van der Waals contact distance GLY 656 atom C for N=C(N)c1ccc(CNC(=O)[C@@H]2CCN2C(=O)[C@H](NCC(=O)O)C2CCCCC2)cc1 [melagatran, reference compound] came out at 3.42

----------
Molecular target: MASP-2 CCP2-SP (Homo sapiens (Human), UniProt O00187)
Sequence (O00187 445-686): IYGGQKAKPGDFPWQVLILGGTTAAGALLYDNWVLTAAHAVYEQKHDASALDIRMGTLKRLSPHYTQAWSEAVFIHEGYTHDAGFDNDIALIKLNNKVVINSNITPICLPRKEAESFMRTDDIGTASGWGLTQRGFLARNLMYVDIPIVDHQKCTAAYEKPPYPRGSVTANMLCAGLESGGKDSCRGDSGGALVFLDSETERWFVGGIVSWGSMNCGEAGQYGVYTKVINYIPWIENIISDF
Sequence (O00187 364-432 partner): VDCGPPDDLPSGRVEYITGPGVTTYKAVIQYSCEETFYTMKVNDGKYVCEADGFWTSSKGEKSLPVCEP
Assay: MASP-2 co-crystallization, X-ray crystallography and structure analysis (H-bonds, van der Waals contacts)
Design: unit not given beside the values
Details: Table A5-1 pharmacophore: distance between elements, S2/S1 region
Where a name gives a salt, the structure may show the parent alone.
Give measured d(O1,O2) for each item. Keep answers brief.

Example results:
Just so you know, measured d(O1,O2) for C[C@H](NC(=O)[C@H]1C[C@@H](c2ccccc2)CCN1)C(=O)NCc1cc(Cl)ccc1O.Cl [1078_14] came out at 2.91

Just so you know, measured d(O1,O2) for Cc1nc(N)ccc1CNC(=O)[C@H](C)NC(=O)[C@H]1C[C@H](Cc2cccc(Cl)c2)CN1.Cl.Cl [1328_3] came out at 3.40

Just so you know, measured d(O1,O2) for CC(=O)Nc1ccc(CCNC(CCc2ccccc2)C(=O)NC(C)C(=O)NCc2ccc(C(=N)N)cc2)cc1.Cl.Cl (stereo not shown) [1345_1] came out at 3.48

Just so you know, measured d(O1,O2) for Cc1nc(N)ccc1CNC(=O)[C@H](C)NC(=O)[C@H]1C[C@H](Cc2cc(Cl)cc(Cl)c2)CN1 [compound 1435, Dihydrochloride] came out at 3.37

Just so you know, measured d(O1,O2) for Cc1nc(N)ccc1CNC(=O)[C@H](C)NC(=O)[C@H]1C[C@H](Cc2ccccc2-c2ccccc2)CN1 [compound 1373, Di-trifluoroacetate salt] came out at 3.38

Just so you know, measured d(O1,O2) for C[C@H](NC(=O)[C@@H](CCc1ccccc1)NCc1ccc(C(=O)N2CCOCC2)cc1)C(=O)NCc1ccc(C(=N)N)cc1.Cl.Cl came out at 9.57

Next:
Just so you know, measured d(O1,O2) for Cc1nc(N)ccc1CNC(=O)[C@H](C)NC(=O)[C@H]1C[C@@H](Cc2ccccc2)CCN1 came out at 3.27

----------
Give measured a(O1, O2, H3) for each item. Keep answers brief.
Target: MASP-2 CCP2-SP (Homo sapiens (Human), UniProt O00187)
Experiment: MASP-2 co-crystallization, X-ray crystallography and structure analysis (H-bonds, van der Waals contacts)
Settings: Table A6-2 pharmacophore angle
Counter-ions that a name gives are not always drawn.
Give bare numbers.

Example results:
Just so you know, measured a(O1, O2, H3) for C[C@H](NC(=O)[C@H]1C[C@@H](c2ccccc2)CCN1)C(=O)NCc1cc(Cl)ccc1O.Cl [1078_3] came out at 132.07

Just so you know, measured a(O1, O2, H3) for C[C@H](NC(=O)[C@H]1C[C@@H](c2ccccc2)CCN1)C(=O)NCc1cc(Cl)ccc1O.Cl [1078_7] came out at 137.32

Just so you know, measured a(O1, O2, H3) for CC(=O)Nc1ccc(CCN[C@H](CCc2ccccc2)C(=O)N[C@@H](C)C(=O)NCc2ccc(N)nc2C)cc1 [compound 1368, Dihydrochloride] came out at 119.72

Just so you know, measured a(O1, O2, H3) for C[C@H](NC(=O)[C@H]1Cc2c([nH]c3ccccc23)CN1)C(=O)NCc1ccc(C(=N)N)cc1.Cl.Cl [1097_2] came out at 153.30

Just so you know, measured a(O1, O2, H3) for C[C@H](NC(=O)[C@@H](CCc1ccccc1)NCc1ccc(C(=O)N2CCOCC2)cc1)C(=O)NCc1ccc(C(=N)N)cc1.Cl.Cl came out at 25.95

Field: a(O1, O2, H3). Fill in for each record below.
1. Cc1nc(N)ccc1CNC(=O)[C@H](C)NC(=O)[C@H]1C[C@H](Cc2cccc(-c3ccccc3)c2)CN1
2. C[C@H](NC(=O)[C@H]1C[C@@H](c2ccccc2)CCN1)C(=O)NCc1cc(Cl)ccc1O.Cl [1078_9]
3. CC(NC(=O)C(CCc1ccccc1)NCCCc1ccc(O)cc1)C(=O)NCc1ccc(C(=N)N)cc1.Cl.Cl (stereo not drawn)

147.38
142.04
150.25

Field: a(O1, O2, H3). Fill in for each record below.
1. C[C@H](NC(=O)[C@H]1C[C@@H](c2ccccc2)CCN1)C(=O)NCc1cc(Cl)ccc1O.Cl [1078_8]
2. N=C(N)c1ccc(CNC(=O)[C@@H]2CCN2C(=O)[C@H]2Cc3ccccc3CN2)cc1
3. Cc1nc(N)ccc1CNC(=O)[C@H](C)NC(=O)[C@H]1C[C@H](Cc2ccccc2Br)CN1.O=C(O)C(F)(F)F.O=C(O)C(F)(F)F [1372_B]
4. C[C@H](NC(=O)[C@H]1C[C@H](Cc2ccccc2)CN1)C(=O)NCc1cnc2[nH]cc(Cl)c2c1
5. C[C@H](NC(=O)[C@H]1C[C@@H](c2ccccc2)CCN1)C(=O)NCc1cc(Cl)ccc1O.Cl [1078_12]
6. C[C@H](NC(=O)[C@H](N)C1Cc2ccccc2C1)C(=O)NCc1ccc2c(N)nccc2c1.Cl.Cl [1088_B]

[140.66, 135.88, 139.74, 136.63, 150.80, 144.52]

Just so you know, measured a(O1, O2, H3) for CC(=O)Nc1ccc(CCNC(CCc2ccccc2)C(=O)NC(C)C(=O)NCc2ccc(C(=N)N)cc2)cc1.Cl.Cl (stereo not drawn) [1345_1] came out at 149.79
